details: in furfural, 282.04 K

- Smiles str: "CCCCCC[n+]1csc2ccccc21.F[P-](F)(F)(F)(F)F"
  solubility (mole fraction): 0.234

* * *

details: in furfural, 321.52 K

- Smiles str: "CCCCCCCC[n+]1csc2ccccc21.F[P-](F)(F)(F)(F)F"
  solubility (mole fraction): 0.81

* * *

settings: in furfural, 327.08 K
Property label: solubility (mole fraction)

- Smiles str: "CCCCCCCC[n+]1csc2ccccc21.F[P-](F)(F)(F)(F)F"
  Property label: "solubility (mole fraction)"
  Recorded result: 0.858

* * *

settings: in water, 363 K
Property label: solubility (mole fraction)

- Smiles str: "CCCC[n+]1csc2ccccc21.F[P-](F)(F)(F)(F)F"
  Property label: "solubility (mole fraction)"
  Recorded result: 0.00175

Origin of measurements: BigSolDB 2.1
